All figures here come from patent US20240358841A1.

# MEASUREMENT NOTES: LNP encapsulation efficiency by Ribogreen assay
# Format: physicochemical
# TEST CONDITIONS: LNP: 47.5% ionizable lipid, 40% cholesterol, 2.5% PEG-2000 DMG, 10% DPSC, N/P 4-8
QUANTITY NAME: Mean Encapsulation Efficiency (%)

>>> result("CC/C=C\\CCCCOC(CCC(=O)OCC(COC(=O)CCCCCCOC(=O)C(CCCC)CCCCCC)(COC(=O)CCCCCCOC(=O)C(CCCC)CCCCCC)COC(=O)OCCCN(CC)CC)OCCCC/C=C\\CC (stereo not drawn) [Compound 7-56]")
"88.1%"
>>> result("CC/C=C\\CCCCOC(CCC(=O)OCC(COC(=O)CCCCCCC/C=C\\C/C=C\\CCCCC)(COC(=O)CCCCCCC/C=C\\C/C=C\\CCCCC)COC(=O)OCCCN(CC)CC)OCCCC/C=C\\CC [Compound 7-67]")
"89.5%"
>>> result("CC/C=C\\CCCCOC(CCC(=O)OCC(COC(=O)CCCCCCCOC(=O)C(CCCC)CCCCCC)(COC(=O)CCCCCCCOC(=O)C(CCCC)CCCCCC)COC(=O)NCCN1CCCC1)OCCCC/C=C\\CC (stereo not drawn) [Compound 7-66]")
"88.8%"

---

# MEASUREMENT NOTES: LNP hydrodynamic diameter and polydispersity index by dynamic light scattering (DLS)
# Format: physicochemical
# TEST CONDITIONS: LNP: 47.5% ionizable lipid, 40% cholesterol, 2.5% PEG-2000 DMG, 10% DPSC, N/P 4-8
QUANTITY NAME: Mean Diameter (nm)

>>> result("CC/C=C\\CCCCOC(CCC(=O)OCC(COC(=O)CCCCCCC/C=C\\C/C=C\\CCCCC)(COC(=O)CCCCCCC/C=C\\C/C=C\\CCCCC)COC(=O)OCCCN(CC)CC)OCCCC/C=C\\CC [Compound 7-67]")
"87.5 nm"
>>> result("CC/C=C\\CCCCOC(CCC(=O)OCC(COC(=O)CCCCCCC/C=C\\C/C=C\\CCCCC)(COC(=O)CCCCCCC/C=C\\C/C=C\\CCCCC)COC(=O)OCC1CCCN(CC)C1)OCCCC/C=C\\CC (stereo not drawn) [Compound 7-68]")
"92.9 nm"
>>> result("CC/C=C\\CCCCOC(CCC(=O)OCC(COC(=O)CCCCCCOC(=O)C(CCCC)CCCCCC)(COC(=O)CCCCCCOC(=O)C(CCCC)CCCCCC)COC(=O)OCCCN(C)CC)OCCCC/C=C\\CC (stereo not drawn) [Compound 7-62]")
"80.2 nm"

---

Listed below: Mean PDI values for each entry.
# MEASUREMENT NOTES: LNP hydrodynamic diameter and polydispersity index by dynamic light scattering (DLS)
# Format: physicochemical
# TEST CONDITIONS: LNP: 47.5% ionizable lipid, 40% cholesterol, 2.5% PEG-2000 DMG, 10% DPSC, N/P 4-8
QUANTITY NAME: Mean PDI

>>> result("CC/C=C\\CCCCOC(CCC(=O)OCC(COC(=O)CCCCCCOC(=O)C(CCCC)CCCCCC)(COC(=O)CCCCCCOC(=O)C(CCCC)CCCCCC)COC(=O)OCCCN(C)CC)OCCCC/C=C\\CC (stereo not shown)")
0.14
>>> result("CCCCC/C=C\\CCOC(=O)CCCCCC(=O)OCC(COC(=O)CCCCCC(=O)OCC/C=C\\CCCCC)(COC(=O)CCCCCC(=O)OCC/C=C\\CCCCC)COC(=O)CCCN1CCCC1")
0.08
>>> result("CCCCC/C=C\\CCOC(=O)CCCCCC(=O)OCC(COC(=O)CCCCCC(=O)OCC/C=C\\CCCCC)(COC(=O)CCCN1CCCC1)COC(=O)CC12CC3CC(CC(C3)C1)C2")
0.08
>>> result("CC/C=C\\CCCCOC(=O)CCCCCCC(=O)OCC(COC(=O)CCCCCCC(=O)OCCCC/C=C\\CC)(COC(=O)CCCCCCC(=O)OCCCC/C=C\\CC)COC(=O)NCCN1CCCC1")
0.08
>>> result("CCCCC/C=C\\CCOC(=O)CCCC(=O)OCC(COC(=O)CCCC(=O)OCC/C=C\\CCCCC)(COC(=O)CCCC(=O)OCC/C=C\\CCCCC)COC(=O)OCCCN(CC)CC")
0.11
>>> result("CC/C=C\\CCCCOC(CCC(=O)OCC(COC(=O)CCCCCOC(=O)C(CCCC)CCCCCC)(COC(=O)CCCCCOC(=O)C(CCCC)CCCCCC)COC(=O)NCCN1CCCC1)OCCCC/C=C\\CC (stereo not shown)")
0.13
>>> result("CC/C=C\\CCCCOC(CCC(=O)OCC(COC(=O)CCCCCCCOC(=O)C(CCCC)CCCCCC)(COC(=O)CCCCCCCOC(=O)C(CCCC)CCCCCC)COC(=O)OCCCN(CC)CC)OCCCC/C=C\\CC (stereo not shown)")
0.17
>>> result("CC/C=C\\CCCCOC(CCC(=O)OCC(COC(=O)CCCCCCC/C=C\\C/C=C\\CCCCC)(COC(=O)CCCCCCC/C=C\\C/C=C\\CCCCC)COC(=O)OCCCN(C)CC)OCCCC/C=C\\CC")
0.15
>>> result("CCCCC/C=C\\CCOC(=O)CCCCCC(=O)OCC(COC(=O)CCCCCC(=O)OCC/C=C\\CCCCC)(COC(=O)CC12CC3CC(CC(C3)C1)C2)COC(=O)OCCCN(CC)CC")
0.11
>>> result("CC/C=C\\CCCCOC(CCC(=O)OCC(COC(=O)CCCCCOC(=O)C(CCCC)CCCCCC)(COC(=O)CCCCCOC(=O)C(CCCC)CCCCCC)COC(=O)OCCCN(C)CC)OCCCC/C=C\\CC (stereo not shown)")
0.17
>>> result("CC/C=C\\CCCCOC(CCC(=O)OCC(COC(=O)CCCCCCC/C=C\\C/C=C\\CCCCC)(COC(=O)CCCCCCC/C=C\\C/C=C\\CCCCC)COC(=O)NCCN1CCCC1)OCCCC/C=C\\CC")
0.13
>>> result("CC/C=C\\CCCCOC(CCC(=O)OCC(COC(=O)CCCCCCOC(=O)C(CCCC)CCCCCC)(COC(=O)CCCCCCOC(=O)C(CCCC)CCCCCC)COC(=O)OCCCN(CC)CC)OCCCC/C=C\\CC (stereo not shown)")
0.11
>>> result("CC/C=C\\CCCCOC(CCC(=O)OCC(COC(=O)CCCCCCCOC(=O)C(CCCC)CCCCCC)(COC(=O)CCCCCCCOC(=O)C(CCCC)CCCCCC)COC(=O)OCC1CCCN(CC)C1)OCCCC/C=C\\CC (stereo not shown)")
0.14
>>> result("CC/C=C\\CCCCOC(CCC(=O)OCC(COC(=O)CCCCCCOC(=O)C(CCCC)CCCCCC)(COC(=O)CCCCCCOC(=O)C(CCCC)CCCCCC)COC(=O)NCCN1CCCC1)OCCCC/C=C\\CC (stereo not shown)")
0.15
>>> result("CC/C=C\\CCCCOC(CCC(=O)OCC(COC(=O)CCCCCCCOC(=O)C(CCCC)CCCCCC)(COC(=O)CCCCCCCOC(=O)C(CCCC)CCCCCC)COC(=O)OCCCN(C)CC)OCCCC/C=C\\CC (stereo not shown)")
0.14
>>> result("CC/C=C\\CCCCOC(CCC(=O)OCC(COC(=O)CCCCCOC(=O)C(CCCC)CCCCCC)(COC(=O)CCCCCOC(=O)C(CCCC)CCCCCC)COC(=O)OCC1CCCN(CC)C1)OCCCC/C=C\\CC (stereo not shown)")
0.15
>>> result("CC/C=C\\CCCCOC(CCC(=O)OCC(COC(=O)CCCCCOC(=O)C(CCCC)CCCCCC)(COC(=O)CCCCCOC(=O)C(CCCC)CCCCCC)COC(=O)OCCCN(CC)CC)OCCCC/C=C\\CC (stereo not shown)")
0.13
>>> result("CCCCC/C=C\\CCOC(=O)CCCCCCC(=O)OCC(COC(=O)CCCCCCC(=O)OCC/C=C\\CCCCC)(COC(=O)CCCCCCC(=O)OCC/C=C\\CCCCC)COC(=O)NCCN1CCCC1")
0.07
>>> result("CC/C=C\\CCCCOC(CCC(=O)OCC(COC(=O)CCCCCCC/C=C\\C/C=C\\CCCCC)(COC(=O)CCCCCCC/C=C\\C/C=C\\CCCCC)COC(=O)OCC1CCCN(CC)C1)OCCCC/C=C\\CC (stereo not shown)")
0.14

---

# MEASUREMENT NOTES: LNP encapsulation efficiency by Ribogreen assay
# Type: physicochemical
# TEST CONDITIONS: LNP: 47.5% ionizable lipid, 40% cholesterol, 2.5% PEG-2000 DMG, 10% DPSC, N/P 4-8
QUANTITY NAME: Mean Encapsulation Efficiency (%)

>>> result("CC/C=C\\CCCCOC(CCC(=O)OCC(COC(=O)CCCCCCC/C=C\\C/C=C\\CCCCC)(COC(=O)CCCCCCC/C=C\\C/C=C\\CCCCC)COC(=O)NCCN1CCCC1)OCCCC/C=C\\CC [Compound 7-70]")
"87.0%"
>>> result("CC/C=C\\CCCCOC(CCC(=O)OCC(COC(=O)CCCCCCCOC(=O)C(CCCC)CCCCCC)(COC(=O)CCCCCCCOC(=O)C(CCCC)CCCCCC)COC(=O)OCC1CCCN(CC)C1)OCCCC/C=C\\CC (stereo not shown) [Compound 7-60]")
"84.6%"
>>> result("CC/C=C\\CCCCOC(CCC(=O)OCC(COC(=O)CCCCCCCOC(=O)C(CCCC)CCCCCC)(COC(=O)CCCCCCCOC(=O)C(CCCC)CCCCCC)COC(=O)OCCCN(CC)CC)OCCCC/C=C\\CC (stereo not shown) [Compound 7-57]")
"88.4%"
>>> result("CC/C=C\\CCCCOC(CCC(=O)OCC(COC(=O)CCCCCOC(=O)C(CCCC)CCCCCC)(COC(=O)CCCCCOC(=O)C(CCCC)CCCCCC)COC(=O)OCC1CCCN(CC)C1)OCCCC/C=C\\CC (stereo not shown) [Compound 7-58]")
"90.1%"
>>> result("CCCCC/C=C\\CCOC(=O)CCCC(=O)OCC(COC(=O)CCCC(=O)OCC/C=C\\CCCCC)(COC(=O)CCCC(=O)OCC/C=C\\CCCCC)COC(=O)OCCCN(CC)CC [Compound 7-37]")
"71.9%"
>>> result("CC/C=C\\CCCCOC(CCC(=O)OCC(COC(=O)CCCCCCCOC(=O)C(CCCC)CCCCCC)(COC(=O)CCCCCCCOC(=O)C(CCCC)CCCCCC)COC(=O)OCCCN(C)CC)OCCCC/C=C\\CC (stereo not shown) [Compound 7-63]")
"87.8%"
>>> result("CC/C=C\\CCCCOC(CCC(=O)OCC(COC(=O)CCCCCOC(=O)C(CCCC)CCCCCC)(COC(=O)CCCCCOC(=O)C(CCCC)CCCCCC)COC(=O)OCCCN(CC)CC)OCCCC/C=C\\CC (stereo not shown) [Compound 7-55]")
"87.5%"
>>> result("CC/C=C\\CCCCOC(CCC(=O)OCC(COC(=O)CCCCCCC/C=C\\C/C=C\\CCCCC)(COC(=O)CCCCCCC/C=C\\C/C=C\\CCCCC)COC(=O)OCC1CCCN(CC)C1)OCCCC/C=C\\CC (stereo not shown) [Compound 7-68]")
"90.0%"
>>> result("CCCCC/C=C\\CCOC(=O)CCCCCCC(=O)OCC(COC(=O)CCCCCCC(=O)OCC/C=C\\CCCCC)(COC(=O)CCCCCCC(=O)OCC/C=C\\CCCCC)COC(=O)NCCN1CCCC1 [Compound 7-16]")
"79.9%"
>>> result("CC/C=C\\CCCCOC(CCC(=O)OCC(COC(=O)CCCCCCC/C=C\\C/C=C\\CCCCC)(COC(=O)CCCCCCC/C=C\\C/C=C\\CCCCC)COC(=O)OCCCN(C)CC)OCCCC/C=C\\CC [Compound 7-69]")
"88.5%"
>>> result("CCCCC/C=C\\CCOC(=O)CCCCCC(=O)OCC(COC(=O)CCCCCC(=O)OCC/C=C\\CCCCC)(COC(=O)CCCCCC(=O)OCC/C=C\\CCCCC)COC(=O)CCCN1CCCC1 [Compound 7-51]")
"77.1%"
>>> result("CC/C=C\\CCCCOC(CCC(=O)OCC(COC(=O)CCCCCOC(=O)C(CCCC)CCCCCC)(COC(=O)CCCCCOC(=O)C(CCCC)CCCCCC)COC(=O)OCCCN(C)CC)OCCCC/C=C\\CC (stereo not shown) [Compound 7-61]")
"88.9%"
>>> result("CC/C=C\\CCCCOC(CCC(=O)OCC(COC(=O)CCCCCCOC(=O)C(CCCC)CCCCCC)(COC(=O)CCCCCCOC(=O)C(CCCC)CCCCCC)COC(=O)NCCN1CCCC1)OCCCC/C=C\\CC (stereo not shown) [Compound 7-65]")
"89.2%"
>>> result("CCCCC/C=C\\CCOC(=O)CCCCCC(=O)OCC(COC(=O)CCCCCC(=O)OCC/C=C\\CCCCC)(COC(=O)CC12CC3CC(CC(C3)C1)C2)COC(=O)OCCCN(CC)CC [Compound 7-25]")
"66.9%"
>>> result("CC/C=C\\CCCCOC(=O)CCCCCCC(=O)OCC(COC(=O)CCCCCCC(=O)OCCCC/C=C\\CC)(COC(=O)CCCCCCC(=O)OCCCC/C=C\\CC)COC(=O)NCCN1CCCC1 [Compound 7-18]")
"38.4%"
>>> result("CC/C=C\\CCCCOC(CCC(=O)OCC(COC(=O)CCCCCCOC(=O)C(CCCC)CCCCCC)(COC(=O)CCCCCCOC(=O)C(CCCC)CCCCCC)COC(=O)OCC1CCCN(CC)C1)OCCCC/C=C\\CC (stereo not shown) [Compound 7-59]")
"86.7%"
>>> result("CC/C=C\\CCCCOC(CCC(=O)OCC(COC(=O)CCCCCCOC(=O)C(CCCC)CCCCCC)(COC(=O)CCCCCCOC(=O)C(CCCC)CCCCCC)COC(=O)OCCCN(C)CC)OCCCC/C=C\\CC (stereo not shown) [Compound 7-62]")
"88.6%"
>>> result("CC/C=C\\CCCCOC(CCC(=O)OCC(COC(=O)CCCCCOC(=O)C(CCCC)CCCCCC)(COC(=O)CCCCCOC(=O)C(CCCC)CCCCCC)COC(=O)NCCN1CCCC1)OCCCC/C=C\\CC (stereo not shown) [Compound 7-64]")
"90.4%"
>>> result("CCCCC/C=C\\CCOC(=O)CCCCCC(=O)OCC(COC(=O)CCCCCC(=O)OCC/C=C\\CCCCC)(COC(=O)CCCN1CCCC1)COC(=O)CC12CC3CC(CC(C3)C1)C2 [Compound 7-53]")
"43.3%"
